- targetEntity: T1, sEGFR-MMB (dimeric sEGFR mimetibody) (human)
- T1 construct: Disulfide linked homodimer, expressed in 293E cells; also called sEGFR-Fc
- T1 sequence (chain, as listed by the source limits assumed): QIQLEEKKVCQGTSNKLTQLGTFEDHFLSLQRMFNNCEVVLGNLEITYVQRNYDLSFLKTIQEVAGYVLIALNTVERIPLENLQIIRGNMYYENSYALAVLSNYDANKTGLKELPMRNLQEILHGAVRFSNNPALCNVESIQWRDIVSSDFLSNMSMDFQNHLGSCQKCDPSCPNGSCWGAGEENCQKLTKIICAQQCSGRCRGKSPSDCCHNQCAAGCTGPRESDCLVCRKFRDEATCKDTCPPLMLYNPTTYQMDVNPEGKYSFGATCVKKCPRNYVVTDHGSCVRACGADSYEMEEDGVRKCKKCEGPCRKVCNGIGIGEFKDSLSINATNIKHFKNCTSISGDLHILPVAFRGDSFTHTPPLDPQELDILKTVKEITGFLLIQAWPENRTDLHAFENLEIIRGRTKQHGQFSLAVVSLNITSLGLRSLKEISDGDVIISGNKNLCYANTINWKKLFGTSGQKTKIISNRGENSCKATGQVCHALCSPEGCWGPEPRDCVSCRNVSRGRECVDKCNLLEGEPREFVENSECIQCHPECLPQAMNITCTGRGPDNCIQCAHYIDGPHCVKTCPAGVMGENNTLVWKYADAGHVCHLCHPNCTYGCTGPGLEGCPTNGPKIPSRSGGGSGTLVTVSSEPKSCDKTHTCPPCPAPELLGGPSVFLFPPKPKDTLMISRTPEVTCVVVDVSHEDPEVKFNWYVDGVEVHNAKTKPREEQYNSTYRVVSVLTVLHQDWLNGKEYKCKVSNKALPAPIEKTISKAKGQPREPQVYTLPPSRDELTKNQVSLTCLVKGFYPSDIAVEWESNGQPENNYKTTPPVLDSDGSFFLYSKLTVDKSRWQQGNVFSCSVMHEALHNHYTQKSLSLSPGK
- experimentSummary: phage ELISA on coated sEGFR-MMB, chemiluminescence (background typically <200 units)
ELISA signal below 3000 units gives condition not met; ELISA signal at or above it gives condition met.

binder: GGGAFCRLDFNQWLTCLVGGGSGGSGG (pIX phagemid display; not shown: M13 phage coat protein pIX (MSVL...)) [SEQ ID NO: 40 (S19 hit, pIX phage)]
groupLabel: condition not met
//
binder: GGGGPCVLIRDYYLLCLEGGGSGGSGG (pIX phagemid display; also called PP179; not shown: M13 phage coat protein pIX (MSVL...)) [P179 phage (S19, pIX)]
groupLabel: condition met
//
binder: GGGMICYLVDSGNIICYKGGGSGGSGG (pIX phagemid display; also called PP180; not shown: M13 phage coat protein pIX (MSVL...)) [P180 phage (S19, pIX)]
groupLabel: condition met
//
binder: GGGCDCREAVSASLVCRYGGGSGGSGG (pIX phagemid display; not shown: M13 phage coat protein pIX (MSVL...)) [SEQ ID NO: 41 (S19 hit, pIX phage)]
groupLabel: condition met

[Q] Form field: ELISA signal at least 3000 units? Entry: GGGYDCMIRADGSLICWCGGGSGGSGG (pIX phagemid display; not shown: M13 phage coat protein pIX (MSVL...)) [SEQ ID NO: 38 (S19 hit, pIX phage)]
[A] condition not met

Origin of values: patent US20100098681A1
